study system: T1, recombinant canine OX40L ECD-TNCc-HIS protein (canine)
T1 construct: also called Trimeric OX40L probe (HIS tag); trimeric canine OX40L
T1 chain: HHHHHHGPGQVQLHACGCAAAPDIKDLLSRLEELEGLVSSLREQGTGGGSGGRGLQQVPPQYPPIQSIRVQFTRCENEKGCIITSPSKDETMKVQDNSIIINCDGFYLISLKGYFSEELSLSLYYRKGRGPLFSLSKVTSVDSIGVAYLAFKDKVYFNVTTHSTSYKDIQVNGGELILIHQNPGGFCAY
method summary: SPR KD1, bivalent analyte model
// Kd lookup, one value per entry

{"binder": "PMX033 (antibody, V domains shown, also called PMX33) VH: EVQLVESGGDLVKPGGSLRLSCVASGFTFSSYHMSWVRQAPGKGLQWVAYITSGGRTTSYADAVKGRFTISRDNAKNTLYLQMKSLRAEDTAVYYCASDLVLVLGGAEYWGQGTLVTVSS VL: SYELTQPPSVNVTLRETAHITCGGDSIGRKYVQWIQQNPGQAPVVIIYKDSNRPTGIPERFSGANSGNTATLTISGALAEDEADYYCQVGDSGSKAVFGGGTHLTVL", "Kd (nM)": 36.4}
{"binder": "PMX048 (antibody, V domains shown, also called PMX48) VH: EVQLVESGGDLVKPGGSLRLSCVASGFTFNNYEMYWVRQAPGKGLEWVARIYESGTTTYSAEADTGRFTISRDNAKNMVFLQMNSLRAEDTAVYYCASASSSTWRFDYWGQGTLVTVSS VL: SYVLTQLPSVSVTLGQTARITCGGDSIGRKNVYWFQQKLGQAPVLIIYDDRSRPSGIPERFSGANSGNTATLTISGALAEDEADYYCQVWDSSTGVFGGGTHLTVL", "Kd (nM)": 12.2}
{"binder": "PMX037 (antibody, V domains shown, also called PMX37) VH: EVQLLESGGDLVKPGGSLRLSCVASGFTFSNYEMYWVRQAPGKGLEWVARFYESGSTTYSAEAVPGRFTISRDNAKNMAYLQMNSLRAEDTAVYYCASASSSSWRFDYWGQGTLVTVSS VL: SYVLTQLPSVSVTLGQTARITCGGDSIGSKNVYWFQQKLGQAPVLIIYDDRSRPSGIPERFSGANSGNTATLTISGALAEDEADYYCQVWDSSTGVFGGGTHLTVL", "Kd (nM)": 308}

# credit: patent US20250340659A1
